# credit: patent US5342841A

// UniProt:P30543 pKi records
Quick note: pKi means taking -log10 of the concentration in moles per liter.

Answered cases to consult:
>  <compound>
O=c1c2[nH]c(C34CC5CC(CC3C5)C4)nc2n(C2CC2)c(=O)n1C1CC1 [Compound 3]

>  <pKi>
5.89

$$$$
>  <compound>
O=c1c2[nH]c(C(C3CC3)C3CC3)nc2n(CC2CC2)c(=O)n1CC1CC1 [Compound 2]

>  <pKi>
6.68

$$$$

# context switch: different compound, same pKi
Given O=c1c2[nH]c(C(C3CC3)C3CC3)nc2n(C2CC2)c(=O)n1C1CC1 [Compound 4] , state its recorded pKi.
5.62

###

Let's look at some compounds and their measured inhibition at 100 µM.
subject.of.test: Adenosine A1 receptor (Cavia porcellus)
Construct: from tissue; host or cells: guinea pig cerebrum membranes
Sequence (P47745 1-326): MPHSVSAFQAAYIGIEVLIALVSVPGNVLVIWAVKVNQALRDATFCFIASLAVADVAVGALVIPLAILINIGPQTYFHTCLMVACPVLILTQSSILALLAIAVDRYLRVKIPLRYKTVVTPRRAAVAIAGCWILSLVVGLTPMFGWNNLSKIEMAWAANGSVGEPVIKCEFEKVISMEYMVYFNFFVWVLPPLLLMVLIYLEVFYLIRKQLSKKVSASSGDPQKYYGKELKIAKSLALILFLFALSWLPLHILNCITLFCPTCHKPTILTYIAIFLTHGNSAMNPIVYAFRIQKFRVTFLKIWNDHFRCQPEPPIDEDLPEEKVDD
experimental.details: Adenosine A1 receptor binding (3H-CHA)
recorded.conditions: 10^-4 M test compound; 3H-CHA 1.1 nM; guinea pig cerebrum
All answers are understood in %, so give the number only.

>  <compound>
O=c1c2[nH]c(C(C3CC3)C3CC3)nc2n(CC2CC2)c(=O)n1CC1CC1 [Compound 2]

>  <value.observed>
101

$$$$
>  <compound>
O=c1c2[nH]c(C(C3CC3)C3CC3)nc2n(C2CC2)c(=O)n1C1CC1 [Compound 4]

>  <value.observed>
99

$$$$
>  <compound>
O=c1c2[nH]c(C34CC5CC(CC3C5)C4)nc2n(CC2CC2)c(=O)n1CC1CC1 [Compound 1]

>  <value.observed>
101

$$$$

# context switch: different compound, same inhibition at 100 µM
Given O=c1c2[nH]c(C34CC5CC(CC3C5)C4)nc2n(C2CC2)c(=O)n1C1CC1 [Compound 3] , state its recorded inhibition at 100 µM.
98

###

Let's look at some compounds and their measured inhibition at 10 µM.
subject.of.test: Adenosine A1 receptor (Cavia porcellus)
Construct: from tissue; host or cells: guinea pig cerebrum membranes
Sequence (P47745 1-326): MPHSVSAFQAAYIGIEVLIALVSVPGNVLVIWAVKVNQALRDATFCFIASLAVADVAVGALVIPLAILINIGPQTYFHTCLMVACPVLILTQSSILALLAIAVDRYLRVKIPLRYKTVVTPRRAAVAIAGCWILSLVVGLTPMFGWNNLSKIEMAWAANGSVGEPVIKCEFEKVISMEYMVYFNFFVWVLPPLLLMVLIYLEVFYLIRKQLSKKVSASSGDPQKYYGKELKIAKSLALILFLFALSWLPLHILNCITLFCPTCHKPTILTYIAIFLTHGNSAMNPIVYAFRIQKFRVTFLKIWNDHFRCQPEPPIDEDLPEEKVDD
experimental.details: Adenosine A1 receptor binding (3H-CHA)
recorded.conditions: 10^-5 M test compound; 3H-CHA 1.1 nM; guinea pig cerebrum
All answers are understood in %, so give the number only.

>  <compound>
O=c1c2[nH]c(C(C3CC3)C3CC3)nc2n(C2CC2)c(=O)n1C1CC1 [Compound 4]

>  <subject.of.test>
Adenosine A1 receptor (Cavia porcellus)

>  <value.observed>
99

$$$$
>  <compound>
O=c1c2[nH]c(C34CC5CC(CC3C5)C4)nc2n(CC2CC2)c(=O)n1CC1CC1 [Compound 1]

>  <subject.of.test>
Adenosine A1 receptor (Cavia porcellus)

>  <value.observed>
99

$$$$
>  <compound>
O=c1c2[nH]c(C34CC5CC(CC3C5)C4)nc2n(C2CC2)c(=O)n1C1CC1 [Compound 3]

>  <subject.of.test>
Adenosine A1 receptor (Cavia porcellus)

>  <value.observed>
99

$$$$

# context switch: different compound, same inhibition at 10 µM
Form field: inhibition at 10 µM recorded for O=c1c2[nH]c(C(C3CC3)C3CC3)nc2n(CC2CC2)c(=O)n1CC1CC1 [Compound 2] with Adenosine A1 receptor (Cavia porcellus) (enter value)
100

###

subject.of.test: Adenosine A2 receptor (Rattus norvegicus, UniProt P30543)
Construct: using rat corpus striatum to prepare the final precipitate; from tissue; host or cells: rat corpus striatum membranes
Sequence (P30543 whole entry): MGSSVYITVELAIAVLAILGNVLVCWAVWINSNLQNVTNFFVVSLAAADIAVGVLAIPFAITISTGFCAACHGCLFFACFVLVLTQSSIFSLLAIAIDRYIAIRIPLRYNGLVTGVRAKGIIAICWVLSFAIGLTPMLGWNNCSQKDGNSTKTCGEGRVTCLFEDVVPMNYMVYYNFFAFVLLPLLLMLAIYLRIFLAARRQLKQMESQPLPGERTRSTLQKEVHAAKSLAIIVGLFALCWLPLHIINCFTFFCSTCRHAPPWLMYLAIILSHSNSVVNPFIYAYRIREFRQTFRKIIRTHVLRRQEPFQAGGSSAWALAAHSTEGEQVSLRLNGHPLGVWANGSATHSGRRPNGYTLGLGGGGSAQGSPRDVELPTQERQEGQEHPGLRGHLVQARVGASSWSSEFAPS
experimental.details: Adenosine A2 receptor binding test (3H-NECA)
recorded.conditions: read-out: A2 Receptor Inhibition (%)
parameter.measured: inhibition at 10 µM (%)
All answers are understood in %, so give the number only.

>  <compound.structure.string>
O=c1c2[nH]c(C34CC5CC(CC3C5)C4)nc2n(C2CC2)c(=O)n1C1CC1

>  <units.symbol>
%

>  <inhibition at 10 µM>
78

$$$$
>  <compound.structure.string>
O=c1c2[nH]c(C34CC5CC(CC3C5)C4)nc2n(CC2CC2)c(=O)n1CC1CC1

>  <units.symbol>
%

>  <inhibition at 10 µM>
49

$$$$
>  <compound.structure.string>
O=c1c2[nH]c(C(C3CC3)C3CC3)nc2n(CC2CC2)c(=O)n1CC1CC1

>  <units.symbol>
%

>  <inhibition at 10 µM>
93

$$$$

# context switch: different compound, same inhibition at 10 µM
Given O=c1c2[nH]c(C(C3CC3)C3CC3)nc2n(C2CC2)c(=O)n1C1CC1 , state its recorded inhibition at 10 µM.
104

###

// Adenosine A1 receptor (Cavia porcellus, UniProt P47745) Ki records
State the value, then name its unit.

>  <compound>
O=c1c2[nH]c(C(C3CC3)C3CC3)nc2n(C2CC2)c(=O)n1C1CC1 [Compound 4]

>  <Ki>
42 nM

$$$$
>  <compound>
O=c1c2[nH]c(C34CC5CC(CC3C5)C4)nc2n(CC2CC2)c(=O)n1CC1CC1 [Compound 1]

>  <Ki>
1.9 nM

$$$$
>  <compound>
O=c1c2[nH]c(C34CC5CC(CC3C5)C4)nc2n(C2CC2)c(=O)n1C1CC1 [Compound 3]

>  <Ki>
38 nM

$$$$

# context switch: different compound, same Ki
Form field: Ki recorded for O=c1c2[nH]c(C(C3CC3)C3CC3)nc2n(CC2CC2)c(=O)n1CC1CC1 [Compound 2] with Adenosine A1 receptor (Cavia porcellus, UniProt P47745) (enter value)
2.7 nM

###

Let's look at some compounds and their measured inhibition at 100 µM.
subject.of.test: Adenosine A2 receptor (Rattus norvegicus)
Construct: using rat corpus striatum to prepare the final precipitate; from tissue; host or cells: rat corpus striatum membranes
experimental.details: Adenosine A2 receptor binding test (3H-NECA)
recorded.conditions: read-out: A2 Receptor Inhibition (%)
All answers are understood in %, so give the number only.

Answered cases to consult:
>  <compound.structure.string>
O=c1c2[nH]c(C34CC5CC(CC3C5)C4)nc2n(C2CC2)c(=O)n1C1CC1

>  <value.observed>
103

$$$$
>  <compound.structure.string>
O=c1c2[nH]c(C34CC5CC(CC3C5)C4)nc2n(CC2CC2)c(=O)n1CC1CC1

>  <value.observed>
70

$$$$
>  <compound.structure.string>
O=c1c2[nH]c(C(C3CC3)C3CC3)nc2n(C2CC2)c(=O)n1C1CC1

>  <value.observed>
108

$$$$

# context switch: different compound, same inhibition at 100 µM
Given O=c1c2[nH]c(C(C3CC3)C3CC3)nc2n(CC2CC2)c(=O)n1CC1CC1 , state its recorded inhibition at 100 µM.
100
